Origin of the recorded values: patent US20260176342A1

# Subject Of Test: T1, citrullinated histone 2A-derived peptide (SEQ ID NO: 18), C-terminal biotin (human)
# T1 construct: Captured by its biotin on NeutrAvidin plates (ELISA) or streptavidin biosensors (Octet); also called histone-derived peptide; citrullinated H2A-derived peptide
# T1 peptide: SG[Cit]GKQGGKARA-biotin
# Experiment Description: Octet RED96 off-rate screen, biotinylated peptide on streptavidin biosensors, antibody 72 nM, 30 C
Square brackets hold non-standard residues; d marks the D form. Ends that are not written are not given here. Cit = NC(=O)NCCC[C@H](N)C(=O)O
Value Type: binding result

Problem: Item hMQ22.101HC7/LC27 (antibody, V domains shown, also called isomerization mutant; heavy chain hVH22.101HC7 with light chain hVL22.101LC27) VH: QVQLVQSGAEVKKPGSSVKVSCKASGYTFTNYGMHWVRQAPGQGLEWMGWINTYSGEATYAQKFQGRVTITADESTSTAYMELSSLRSEDTAVYYCLRGYTYQSFDEGGDYWGQGTLVTVSS VL: DVVMTQSPLSLPVTLGQPASISCRSSQSLLDTDAKTYLNWFQQRPGQSPRRLIYLVSKLDSGVPDRFSGSGSGTDFTLKISRVEAEDVGVYYCWQGTHFPYTFGQGTKLEIK has what recorded binding result?
Solution: binds

Problem: Item hMQ22.101HC9/LC21 (antibody, V domains shown, also called isomerization mutant; heavy chain hVH22.101HC9 with light chain hVL22.101LC21) VH: RIQLVQSGAEVKKPGASVKVSCKASGYTFTNYGMHWVRQAPGQGLEWMGWINTYSGEATYVDDFQGRVTMTRDTSISTAYMELSRLRSDDTAVYYCLRGYTYQSFDEGGDYWGQGTLVTVSS VL: DVVMTQSPLSLPVTLGQPASISCRSSQSLLDSDAKTYLNWFQQRPGQSPRRLIYLVSKLDSGVPDRFSGSGSGTDFTLKISRVEAEDVGVYYCWQGTHFPYTFGQGTKLEIK has what recorded binding result?
Solution: binds

Problem: Item hMQ22.101HC7/LC42 (antibody, V domains shown, also called isomerization mutant; heavy chain hVH22.101HC7 with light chain hVL22.101LC42) VH: QVQLVQSGAEVKKPGSSVKVSCKASGYTFTNYGMHWVRQAPGQGLEWMGWINTYSGEATYAQKFQGRVTITADESTSTAYMELSSLRSEDTAVYYCLRGYTYQSFDEGGDYWGQGTLVTVSS VL: DVVMTQSPLSLPVTLGQPASISCRSSQSLLDNDGKTYLNWFQQRPGQSPRRLIYLVSKLDSGVPDRFSGSGSGTDFTLKISRVEAEDVGVYYCWQGTHFPYTFGQGTKLEIK has what recorded binding result?
Solution: binds
